- system-name: T1, human ROR1 (hROR1) on cells (human, UniProt Q01973 30-937)
- T1 construct: whole, on cells; the cell line is named under assay; also called HEK293T-hROR1; 293T-hROR1
- T1 sequence (Q01973 30-937): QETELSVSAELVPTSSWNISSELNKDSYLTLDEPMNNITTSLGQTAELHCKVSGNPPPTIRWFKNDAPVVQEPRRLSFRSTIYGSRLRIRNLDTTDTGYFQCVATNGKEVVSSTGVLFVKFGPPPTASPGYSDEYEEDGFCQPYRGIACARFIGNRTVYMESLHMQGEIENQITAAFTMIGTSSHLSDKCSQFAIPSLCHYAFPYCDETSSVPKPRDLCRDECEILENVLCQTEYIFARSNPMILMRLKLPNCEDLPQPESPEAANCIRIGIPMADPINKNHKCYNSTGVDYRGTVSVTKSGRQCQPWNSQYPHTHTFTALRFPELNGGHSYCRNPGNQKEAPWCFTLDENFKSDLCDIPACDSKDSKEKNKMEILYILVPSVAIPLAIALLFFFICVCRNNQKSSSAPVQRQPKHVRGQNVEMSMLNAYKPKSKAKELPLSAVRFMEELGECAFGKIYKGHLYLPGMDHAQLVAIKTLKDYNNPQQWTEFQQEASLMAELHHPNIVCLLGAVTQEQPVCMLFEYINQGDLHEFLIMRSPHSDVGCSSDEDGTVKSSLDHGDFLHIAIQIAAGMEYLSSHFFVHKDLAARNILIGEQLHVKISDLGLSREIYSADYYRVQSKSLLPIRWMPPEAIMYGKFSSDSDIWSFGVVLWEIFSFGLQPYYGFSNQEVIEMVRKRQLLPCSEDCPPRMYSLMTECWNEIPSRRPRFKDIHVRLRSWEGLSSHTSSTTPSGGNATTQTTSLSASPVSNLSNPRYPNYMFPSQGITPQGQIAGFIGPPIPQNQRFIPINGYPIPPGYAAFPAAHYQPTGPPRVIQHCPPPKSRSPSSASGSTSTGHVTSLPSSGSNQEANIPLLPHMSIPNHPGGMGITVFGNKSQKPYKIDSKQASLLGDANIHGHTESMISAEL
- assay-method-text: FACS, HEK293T-hROR1 cells; cytometer saturated
The entries below come with measured MAX(MFI) values attached.

Examples with answers:
binder	MAX(MFI)
PR001355 (antibody, human IgG1, kappa, V domains shown, fully human IgG1, kappa) VH: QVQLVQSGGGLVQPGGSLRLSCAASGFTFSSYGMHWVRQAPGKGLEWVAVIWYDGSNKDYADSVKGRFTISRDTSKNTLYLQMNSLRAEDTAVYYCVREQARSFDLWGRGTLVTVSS VL: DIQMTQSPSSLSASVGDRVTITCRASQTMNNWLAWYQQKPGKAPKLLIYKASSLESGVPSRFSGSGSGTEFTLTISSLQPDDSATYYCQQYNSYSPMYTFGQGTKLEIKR	262000 MFI
PR001371 (antibody, human IgG1, kappa, V domains shown, fully human IgG1, kappa) VH: QVQLVESGGGVVQPGRSLRLSCAASGFTFSSYGMLWVRQAPGKGLEWVAVAWYDGVSEDYADSVKGRFTISRDNSMNTLSLQMNSLRAEDTAVYYCAREQARSFDLWGRGTLVTVSS VL: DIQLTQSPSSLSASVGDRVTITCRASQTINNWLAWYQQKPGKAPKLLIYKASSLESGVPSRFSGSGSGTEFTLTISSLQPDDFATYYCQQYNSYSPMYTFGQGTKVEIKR	262000 MFI

Exercise: Fill in: MAX(MFI) of PR001360 (antibody, human IgG1, kappa, V domains shown, fully human IgG1, kappa) VH: QVQLVESGGGVVQPGRSLRLSCAASGFTFSSYGMHWVRQAPGKGLEWVAVIWYDGSDKDSVDSVKGRFTISRDDSKNTLYLQMNSLRAEDTAVYYCAREQARSFDLWGRGTLVTVSS VL: DIQMTQSPSTLSASVGDRVTITCRASQTINNWLAWYQQKPGKAPKLLIYKASSLESGVPSRFSGSGSGTEFTLTISSLQPDDFATYYCQQYNIYSPMYTFGQGTKVEIKR is ___
Solution: 262000 MFI
